molecular target: hMC4-R (Homo sapiens (Human)); test: High and low density hMC4-R functional assay (cAMP, HEK293-T-REx-MC4-R cells); type: cell-based; settings: 10 ng/mL Doxycycline (high density hMC4-R system); NDP-α-MSH = 100%; read-out: Intrinsic Activity (%)
Positions of bridges follow the written chain, without caps; N, C: chain ends. Non-standard residues stand in square brackets, D forms with d. Residues, ends and D or L forms follow the SMILES beside them. dPhe(4-CN) = N#Cc1ccc(C[C@@H](N)C(=O)O)cc1; Orn = NCCC[C@H](N)C(=O)O
Threshold check on Emax: strictly below 90% is 1 (yes); on or above 90% is 0 (no).

Consider the worked cases shown below.
compound	class.label
CC(=O)N[C@@H](CCCNC(=N)N)C(=O)N[C@H]1CCCNC(=O)CC[C@@H](C(N)=O)NC(=O)[C@H](Cc2c[nH]c3ccccc23)NC(=O)[C@H](CCCNC(=N)N)NC(=O)[C@@H](Cc2cc(F)c(F)c(F)c2)NC(=O)[C@H](CC(N)=O)NC1=O [Example 96]	0 (no)
CC(=O)N[C@H](CCCNC(=N)N)C(=O)N[C@H]1CC(=O)NCCCC[C@@H](C(N)=O)NC(=O)[C@H](Cc2c[nH]c3ccccc23)NC(=O)[C@H](CCCNC(=N)N)NC(=O)[C@@H](Cc2cccc(Cl)c2)NC(=O)[C@H](CCC(N)=O)NC1=O [Example 80]	1 (yes)
CC(=O)N[C@@H](CCCNC(=N)N)C(=O)N[C@H]1CCC(=O)NCCC[C@@H](C(N)=O)NC(=O)[C@H](Cc2c[nH]c3ccccc23)NC(=O)[C@H](CCCNC(=N)N)NC(=O)[C@@H](Cc2ccccc2Cl)NC(=O)[C@H]([C@@H](C)O)NC1=O [Example 32]	0 (no)
CC(=O)N[C@@H](CCCNC(=N)N)C(=O)N[C@H]1CCC(=O)NCCC[C@@H](C(N)=O)NC(=O)[C@H](Cc2c[nH]c3ccccc23)NC(=O)[C@H](CCCNC(=N)N)NC(=O)[C@@H](Cc2ccc(C(F)(F)F)cc2)NC(=O)[C@H](CCN)NC1=O [Example 20]	1 (yes)
CC(=O)N[C@@H](CCCNC(=N)N)C(=O)N[C@H]1CCC(=O)NCCC[C@@H](C(N)=O)NC(=O)[C@H](Cc2c[nH]c3ccccc23)NC(=O)[C@H](CCCNC(=N)N)NC(=O)[C@@H](Cc2cccc(Cl)c2)NC(=O)[C@H](CCCN)NC1=O [Example 101]	0 (no)
CC(=O)N[C@@H](CCCNC(=N)N)C(=O)N[C@H]1CCC(=O)NCCC[C@@H](C(N)=O)NC(=O)[C@H](Cc2c[nH]c3ccccc23)NC(=O)[C@H](CCCNC(=N)N)NC(=O)[C@@H](Cc2ccccc2C)NC(=O)[C@H](CCC(N)=O)NC1=O [Example 110]	0 (no)

Alright, here's another compound for you.
Asked: Strictly below 90%: is that where Emax of CC(=O)N[C@@H](CCCNC(=N)N)C(=O)N[C@H]1CCC(=O)NCCC[C@@H](C(N)=O)NC(=O)[C@H](Cc2c[nH]c3ccccc23)NC(=O)[C@H](CCCNC(=N)N)NC(=O)[C@@H](Cc2ccc(C#N)cc2)NC(=O)[C@H](CCC(=O)O)NC1=O [Example 108] (Ac-REE[dPhe(4-CN)]RW[Orn]-NH2; lactam 2-7) sits?
Given back: 1 (yes)

###

The following molecules are shown together with reported Emax values.
target: hMC4-R (Homo sapiens (Human), UniProt P32245); assay: High and low density hMC4-R functional assay (cAMP, HEK293-T-REx-MC4-R cells); type: cell-based; conditions: 10 ng/mL Doxycycline (high density hMC4-R system); NDP-α-MSH = 100%; read-out: Intrinsic Activity (%)
Sequence (P32245 whole entry): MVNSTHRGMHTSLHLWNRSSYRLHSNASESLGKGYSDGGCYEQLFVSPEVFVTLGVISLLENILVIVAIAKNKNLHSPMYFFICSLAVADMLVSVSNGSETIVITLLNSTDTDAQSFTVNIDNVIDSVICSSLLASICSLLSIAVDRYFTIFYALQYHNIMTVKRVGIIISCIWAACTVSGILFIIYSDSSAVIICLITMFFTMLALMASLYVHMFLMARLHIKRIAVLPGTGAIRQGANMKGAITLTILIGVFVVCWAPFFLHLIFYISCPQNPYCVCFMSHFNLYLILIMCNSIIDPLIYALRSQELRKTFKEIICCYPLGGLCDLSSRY
Give a bare numeral; the unit % is implied.

Before answering, review these 3 worked examples.
molecule	assayed.target	Emax (%)
CC(=O)N[C@@H](CCCNC(=N)N)C(=O)N[C@H]1CCC(=O)NCCC[C@@H](C(N)=O)NC(=O)[C@H](Cc2c[nH]c3ccccc23)NC(=O)[C@H](CCCNC(=N)N)NC(=O)[C@@H](Cc2ccc(C#N)cc2)NC(=O)[C@@H]2C[C@@H](O)CN2C1=O [Example 40]	hMC4-R (Homo sapiens (Human), UniProt P32245)	93
CC(=O)N[C@@H](CCCNC(=N)N)C(=O)N[C@H]1CCC(=O)NCCC[C@@H](C(N)=O)NC(=O)[C@H](Cc2c[nH]c3ccccc23)NC(=O)[C@H](CCCNC(=N)N)NC(=O)[C@@H](Cc2ccccc2Cl)NC(=O)[C@H](Cc2cccc(C(N)=O)c2)NC1=O [Example 48]	hMC4-R (Homo sapiens (Human), UniProt P32245)	93
CC(=O)N[C@@H](CCCNC(=N)N)C(=O)N[C@H]1CCC(=O)NCCC[C@@H](C(N)=O)NC(=O)[C@H](Cc2c[nH]c3ccccc23)NC(=O)[C@H](CCCNC(=N)N)NC(=O)[C@@H](Cc2ccccc2Cl)NC(=O)[C@H](CCN)NC1=O [Example 1]	hMC4-R (Homo sapiens (Human), UniProt P32245)	96

Here is the next item to consider.
Asked: Enter measured Emax, system hMC4-R (Homo sapiens (Human), UniProt P32245), for the molecule shown: CC(=O)N[C@@H](CCCNC(=N)N)C(=O)N[C@H]1CCC(=O)NCCC[C@@H](C(N)=O)NC(=O)[C@H](Cc2c[nH]c3ccccc23)NC(=O)[C@H](CCCNC(=N)N)NC(=O)[C@@H](Cc2ccccc2C(F)(F)F)NC(=O)[C@H](CC(N)=O)NC1=O [Example 116]
Given back: 104

###

target: hMC4-R (Homo sapiens (Human)); assay: High and low density hMC4-R functional assay (cAMP, HEK293-T-REx-MC4-R cells); format: cell-based; conditions: 10 ng/mL Doxycycline (high density hMC4-R system); NDP-α-MSH = 100%; read-out: Intrinsic Activity (%)
Positions of bridges follow the written chain, without caps; N, C: chain ends. Non-standard residues stand in square brackets, D forms with d. Residues, ends and D or L forms follow the SMILES beside them. dPhe(2-F) = N[C@H](Cc1ccccc1F)C(=O)O; Orn = NCCC[C@H](N)C(=O)O
measure.name: Emax (%)
Just the number please, in %, no unit attached.

Asked: Read off the recorded Emax for CC(=O)N[C@@H](CCCNC(=N)N)C(=O)N[C@H]1CCC(=O)NCCC[C@@H](C(N)=O)NC(=O)[C@H](Cc2c[nH]c3ccccc23)NC(=O)[C@H](CCCNC(=N)N)NC(=O)[C@@H](Cc2cc(F)cc(F)c2)NC(=O)[C@H](CCN)NC1=O
Given back: 95

Asked: Give the reported value of Emax for this record: CC(=O)N[C@@H](CCCNC(=N)N)C(=O)N[C@H]1CCC(=O)NCCC[C@@H](C(N)=O)NC(=O)[C@H](Cc2c[nH]c3ccccc23)NC(=O)[C@H](CCCNC(=N)N)NC(=O)[C@@H](Cc2ccc(C#N)cc2)NC(=O)[C@H](CC(N)=O)NC1=O
Given back: 100

Asked: Supply recorded Emax for CC(=O)N[C@@H](CCCNC(=N)N)C(=O)N[C@H]1CCCNC(=O)CC[C@@H](C(N)=O)NC(=O)[C@H](Cc2c[nH]c3ccccc23)NC(=O)[C@H](CCCNC(=N)N)NC(=O)[C@@H](Cc2ccccc2F)NC(=O)[C@@H]2CCCN2C1=O [Example 105] (Ac-R[Orn]P[dPhe(2-F)]RWE-NH2; lactam 2-7) here.
Given back: 94

Asked: For CC(=O)N[C@@H](CCCNC(=N)N)C(=O)N[C@H]1CCCNC(=O)CC[C@@H](C(N)=O)NC(=O)[C@H](Cc2c[nH]c3ccccc23)NC(=O)[C@H](CCCNC(=N)N)NC(=O)[C@@H](Cc2ccccc2C)NC(=O)[C@H](CC(N)=O)NC1=O , write its Emax.
Given back: 100

Asked: Please supply the value of reported Emax for the item CC(=O)N[C@@H](CCCNC(=N)N)C(=O)N[C@H]1CCC(=O)NCCC[C@@H](C(N)=O)NC(=O)[C@H](Cc2c[nH]c3ccccc23)NC(=O)[C@H](CCCNC(=N)N)NC(=O)[C@@H](Cc2ccc(C#N)cc2)NC(=O)[C@H]([C@@H](C)O)NC1=O
Given back: 99

Asked: Provide measured Emax value, entry: CC(=O)N[C@@H](CCCNC(=N)N)C(=O)N[C@H]1CCC(=O)NCCC[C@@H](C(N)=O)NC(=O)[C@H](Cc2c[nH]c3ccccc23)NC(=O)[C@H](CCCNC(=N)N)NC(=O)[C@@H](Cc2cccc(Cl)c2)NC(=O)[C@H](CCN)NC1=O
Given back: 99

Asked: Quickly give me recorded Emax for CC(=O)N[C@@H](CCCNC(=N)N)C(=O)N[C@H]1CCCNC(=O)CC[C@@H](C(N)=O)NC(=O)[C@H](Cc2c[nH]c3ccccc23)NC(=O)[C@H](CCCNC(=N)N)NC(=O)[C@@H](Cc2ccccc2C(F)(F)F)NC(=O)[C@H](CC(N)=O)NC1=O
Given back: 112

Asked: Determine from records and report Emax for CC(=O)N[C@@H](CCCNC(=N)N)C(=O)N[C@H]1CCC(=O)NCCC[C@@H](C(=O)O)NC(=O)[C@H](Cc2c[nH]c3ccccc23)NC(=O)[C@H](CCCNC(=N)N)NC(=O)[C@@H](Cc2cc(F)c(F)c(F)c2)NC(=O)[C@H](CCC(N)=O)NC1=O
Given back: 100

Asked: Report Emax, nothing else, for this molecule: CC(=O)N[C@@H](CCCNC(=N)N)C(=O)N[C@H]1CCC(=O)NCCC[C@@H](C(N)=O)NC(=O)[C@H](Cc2c[nH]c3ccccc23)NC(=O)[C@H](CCCNC(=N)N)NC(=O)[C@@H](Cc2ccc(C#N)cc2)NC(=O)[C@@H]2CCCN2C1=O
Given back: 79
